Test system: C33A
assay name: Primary qHTS to identify gynecologic anti-cancer compounds using libraries of approved drugs and bioactive compounds (AID 1345084); also: nearly all actives have a fitted effect of over 55% in size
settings: Gynecologic cancer cell panel viability, ATPlite luminescence, 48 h; series mostly up to 57.5 µM
Results filed as inconclusive are left out. Calls of active or inactive are those of the source. Calls follow the shape of the dose curve; as a rule, active = well fitted cell-killing curve with a large enough effect; inconclusive = small, poorly fitted or top-dose-only effect, or effect the other way; inactive = flat fitted curve, though single readings scatter.
Outcome codes: T (active), F (inactive)

molecule: OCCCNc1cc(-c2ccnc(Nc3cccc(Cl)c3)n2)ccn1
group: T
--
molecule: CC(C)(C)c1cc(NC(=O)Nc2ccc(-c3cn4c(n3)sc3cc(OCCN5CCOCC5)ccc34)cc2)no1
group: F
--
molecule: CN(C1CCc2c(c3ccccc3n2CC(=O)O)C1)S(=O)(=O)c1ccc(F)cc1 (configuration not stated)
group: F
--
molecule: Cc1cn2c(-c3cn[nH]c3)cnc2c(Nc2ccc(C(=O)N3CCNCC3)cc2F)n1
group: F
--
molecule: Cc1c(NC(=O)OC[C@@H]2COCCN2)cn2ncnc(Nc3ccc4c(cnn4Cc4cccc(F)c4)c3)c12
group: F
--
molecule: C=CC(=O)Nc1cccc(Oc2nc(Nc3ccc(N4CCN(C)CC4)cc3OC)ncc2Cl)c1
group: F
--
molecule: NCC(=O)Nc1ccc(-n2nc(C(F)(F)F)cc2-c2ccc3c(ccc4ccccc43)c2)cc1
group: F

Cited source for all entries: PubChem BioAssay (NCATS)
